The reported numbers originate from patent US20180194862A1.

# Lookup of reported EC50 keyed by entry
biological target: T1, mesothelin on cells (endogenous on SN12C, OVCAR3, SW1990); HEK293 cells expressing cell-surface human … (human, UniProt Q13421 296-598); test: FACS, SN12C (CA125-)
T1 construct: whole, on cells; also called cell-surface MSLN
T1 sequence (Q13421 other isoform, or with tags, fused parts or gaps limits assumed): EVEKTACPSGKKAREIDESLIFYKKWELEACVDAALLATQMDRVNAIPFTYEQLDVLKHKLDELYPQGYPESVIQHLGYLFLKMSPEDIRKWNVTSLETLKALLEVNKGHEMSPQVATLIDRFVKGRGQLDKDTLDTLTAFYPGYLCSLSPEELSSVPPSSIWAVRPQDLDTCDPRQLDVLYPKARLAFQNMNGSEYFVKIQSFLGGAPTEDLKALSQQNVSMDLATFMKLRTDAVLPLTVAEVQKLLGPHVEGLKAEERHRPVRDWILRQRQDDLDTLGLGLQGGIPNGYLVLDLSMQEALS

1. HuAM14 (antibody, V domains shown, fully human antibody) VH: EVQLVQSGAEVKKPGASVKVSCKASGDTFKRYYMHWVRQAPGQGLEWMGIINPSGVSTTYAQKFQGRVTMTRDTSTSTVYMELSSLRSEDTAVYYCAEVRGSGFNYFGMDVWGQGTLVTVSS VL: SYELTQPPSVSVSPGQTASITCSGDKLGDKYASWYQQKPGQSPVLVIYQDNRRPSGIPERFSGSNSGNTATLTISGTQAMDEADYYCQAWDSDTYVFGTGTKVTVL    0.09 µg/mL

Consider the additional binder presented here.
(Q) I am curious: what EC50 value has been reported for HuAM12 (antibody, V domains shown, fully human antibody) VH: EVQLVQSGAEVKKPGASVKVSCKASGDTFHRYYVHWVRQAPGQGLEWMGIINPSGVSTTYAQKFQGRVTMTRDTSTSTVYMELSSLRSEDTAVYYCAEVRGSGFNYFGMDVWGQGTLVTVSS VL: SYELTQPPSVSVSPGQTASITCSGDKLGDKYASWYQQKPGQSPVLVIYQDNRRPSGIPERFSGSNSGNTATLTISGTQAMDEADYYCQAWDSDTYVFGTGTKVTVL ?
(A) 0.09 µg/mL
